Recorded values, source the supplement of paper PMC10567573.

B1: PPFIA4 (parent)
chain: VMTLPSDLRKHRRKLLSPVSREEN

variants of: B1; experiment: protein stability index of a GFP-peptide fusion (GPS, HEK-293T) (PSI 1-6); higher = more stable; conditions: c terminus: a fixed tail appended;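 also: lentivirally expressed fusions sorted by FACS into six bins by GFP to DsRed ratio, PSI derived from sequencing read proportions per bin multiplied by bin number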
Label scheme for protein stability index: lower than 4 is -1, 4 and above is 1.

For orientation, consider the following solved cases.
{"Var": "K14A", "Assigned Category": -1}
{"Var": "E23D", "Assigned Category": -1}
{"Var": "L4K", "Assigned Category": 1}
{"Var": "L16I", "Assigned Category": -1}
{"Var": "P18E", "Assigned Category": 1}

Reported protein stability index reaches at least 4 for S6Y ? -1

Reported protein stability index reaches at least 4 for V1N ? -1

Reported protein stability index reaches at least 4 for S20Y ? -1

Reported protein stability index reaches at least 4 for R12D ? 1

Reported protein stability index reaches at least 4 for S17I ? -1

Reported protein stability index reaches at least 4 for R9S ? 1

Reported protein stability index reaches at least 4 for E22C ? -1

Reported protein stability index reaches at least 4 for P18H ? -1
